- Tested on: Trypanosoma cruzi amastigotes cultured in 3T3 fibroblast cells
- ASSAY NAME: Assay for growth inhibition of kinetoplastid parasite Trypanosoma cruzi (beta-galactosidase Tulahuen strain, CPRG readout)
- Format: cell-based
- TEST CONDITIONS: Trypanosoma cruzi, Fibroblast, T. cruzi amastigotes in 3T3 fibroblast cells; read-out: Buckner infectious T. cruzi EC50
- Text: Assay for Growth Inhibition of Kinetoplastid Parasite Trypanosoma cruzi Compounds of the invention can be assayed for inhibitor activity against Trypanosoma cruzi amastigotes cultured in 3T3 fibroblast cells. The assay is done using the mammalian stage (amastigotes) of T. cruzi that replicates in the intracellular space of host cells. […] This allows for a colorimetric readout by using the substrate CPRG and an absorbance plate reader. […]
Threshold 30 nM: EC50 strictly smaller gives T, otherwise F.

MOLECULE: O=C(Nc1ccc(F)c(-n2cc3cc(N4CCS(=O)(=O)CC4)cnc3n2)c1)N1CC(F)C1
LABEL: F
--
MOLECULE: CCC(C)c1cnc2nn(-c3cc(NC(=O)N4CC[C@@H](F)C4)ccc3F)cc2c1 (stereo partly shown)
LABEL: F
--
MOLECULE: O=C(Nc1ccc(F)c(-n2cc3cc(-c4ncccc4Cl)cnc3n2)c1)N1CC[C@@H](F)C1
LABEL: T

Q: Find out if reported EC50 for Cc1nc(C)c(C(=O)Nc2ccc(F)c(-n3cc4cc(N5CCCC5)cnc4n3)c2)o1 is less than 30 nM
Ans: T

Q: Is the reported EC50 for O=C(Nc1ccc(F)c(-n2cc3cc(N4CCCC4)cnc3n2)c1)N1CCC1 strictly below 30 nM?
Ans: T

Q: Hi there! Is EC50 for [2H]C([2H])([2H])N(c1cnc2nn(-c3cc(NC(=O)N4CC[C@@H](F)C4)ccc3F)cc2c1)C([2H])([2H])[2H] below 30 nM, do you know?
Ans: T

Q: Given the entry CC(C)OC(=O)Nc1cnc2nn(-c3cc(NC(=O)N4CC(F)C4)ccc3F)cc2c1 , would its reported EC50 be below 30 nM?
Ans: T

Q: Given CC(C)c1cnc2nn(-c3cc(NC(=O)C4(C)CC(F)(F)C4)ccc3F)cc2c1 , is recorded EC50 strictly lower than 30 nM?
Ans: F

Q: For this molecule, is EC50 lower than 30 nM? CC(C)c1cnc2nn(-c3cc(NC(=O)c4cc(Cl)ccc4F)ccc3F)cc2c1
Ans: F

Q: Quick check: does O=C(Nc1ccc(F)c(-n2cc3cc(C4CCCC4)cnc3n2)c1)N1CC(F)C1 have EC50 under 30 nM?
Ans: F

Q: Just wondering, is EC50 of Cc1nc(C)c(C(=O)Nc2ccc(F)c(-n3cc4cc(C5CCOCC5)cnc4n3)c2)o1 below 30 nM?
Ans: T

Q: Input CC(C)c1cnc2nn(-c3cc(NC(=O)C4CC4)ccc3F)cc2c1 ; condition: EC50 strictly below 30 nM. Does it hold?
Ans: F

Q: I'd appreciate it if you could check whether O=C(Nc1ccc(F)c(-n2cc3cc(-c4ccccn4)cnc3n2)c1)[C@@H]1C[C@@H]1F (racemic) has EC50 smaller than 30 nM.
Ans: F

Q: Given O=C(Nc1ccc(F)c(-n2cc3cc(N4CC(F)(F)C4)cnc3n2)c1)N1CCCC1 , is recorded EC50 strictly lower than 30 nM?
Ans: T

Q: Hello, I'm reviewing records and need to know if EC50 of O=C(Nc1ccc(F)c(-n2cc3cc(C4CCOCC4)cnc3n2)c1)N1CC(F)(F)C1 is below 30 nM. Could you check?
Ans: F

Q: Could you please tell me whether EC50 recorded for CC(C)CCc1cnc2nn(-c3cc(NC(=O)N4CC(F)(F)C4)ccc3F)cc2c1 is less than 30 nM?
Ans: F

###

- Test system: Trypanosoma cruzi amastigotes cultured in 3T3 fibroblast cells
- ASSAY NAME: Assay for growth inhibition of kinetoplastid parasite Trypanosoma cruzi (beta-galactosidase Tulahuen strain, CPRG readout)
- Format: cell-based
- TEST CONDITIONS: Trypanosoma cruzi, Fibroblast, T. cruzi amastigotes in 3T3 fibroblast cells; read-out: Buckner infectious T. cruzi EC50
RESULT TYPE: pEC50
Answers are plain numbers, as −log10 of the molar value.

MOLECULE: O=C(Nc1ccc(F)c(-n2cc3cc(-c4ccccn4)cnc3n2)c1)N1CC(F)C1 [Compound 28]
MEASURED NUMBER: 9.00

MOLECULE: Cc1nc(C(=O)Nc2ccc(F)c(-n3cc4cc(C(C)C)cnc4n3)c2)co1 [Compound 85]
MEASURED NUMBER: 6.82

MOLECULE: O=C(Nc1ccc(F)c(-n2cc3cc(C(F)(F)F)cnc3n2)c1)N1CC(F)C1 [Compound 321]
MEASURED NUMBER: 7.96

MOLECULE: CN1CCN(c2cnc3nn(-c4cc(NC(=O)N5CC(F)C5)ccc4F)cc3c2)CC1 [Compound 179]
MEASURED NUMBER: 7.37

MOLECULE: O=C(Nc1ccc(F)c(-n2cc3cc(N4CC(C(F)(F)F)C4)cnc3n2)c1)N1CC[C@@H](F)C1 [Compound 275]
MEASURED NUMBER: 9.00

MOLECULE: O=C(Nc1ccc(F)c(-n2cc3cc(N4CCC5(CC5)C4)cnc3n2)c1)N1CCC2(CC2)C1 [Compound 242]
MEASURED NUMBER: 8.15

MOLECULE: O=C(Nc1ccc(F)c(-n2cc3cc(-c4ncccc4Cl)cnc3n2)c1)N1CC(F)(F)C1 [Compound 310]
MEASURED NUMBER: 9.00

Now let's try a different one.
Q: Report pEC50 for O=C(Nc1ccc(F)c(-n2cc3cc(N4CC(O)C4)cnc3n2)c1)N1CC(F)C1 [Compound 181] please.
Ans: 6.09

###

For each of the compounds below, state its pEC50.
- System: L. donovani HU3 strain in mouse peritoneal macrophages
- ASSAY NAME: Assay for inhibition of parasitemia of Leishmania donovani in mouse macrophages (SYBR Green nuclei count, high-content imaging)
- Format: cell-based
- TEST CONDITIONS: Leishmania donovani, Peritoneal macrophage, L. donovani in mouse peritoneal macrophages; read-out: L. donovani in Mouse Macrophages EC50
- Experimental: Assay for Inhibition of Parasitemia of Leishmania donovani in Mouse Macrophages […] The next day, Leishmania parasites are isolated from the spleens of mice infected for 9-11 weeks and 4×10^5 isolated parasites in […] of the above media are added to each plate well. […] Infected cells are imaged with Evotec Opera high-content microscope, and the number of parasites in well is determined by counting parasite nuclei visualized by staining with Sybr® Green dye.
Answers are plain numbers, as −log10 of the molar value.

COMPOUND: O=C(Nc1ccc(F)c(-n2cc3cc(-c4ncccc4F)cnc3n2)c1)N1CC(F)(F)C1
MEASURED TARGET: L. donovani HU3 strain in mouse peritoneal macrophages
pEC50: 8.70

COMPOUND: O=C(Nc1ccc(F)c(-n2cc3cc(N4CC(F)(F)C4)cnc3n2)c1)C1CC1
MEASURED TARGET: L. donovani HU3 strain in mouse peritoneal macrophages
pEC50: 6.12

COMPOUND: Cc1nc(C)c(C(=O)Nc2ccc(F)c(-n3cc4cc(-c5ncccc5CO)cnc4n3)c2)o1
MEASURED TARGET: L. donovani HU3 strain in mouse peritoneal macrophages
pEC50: 6.95

Hi team, please reply with pEC50 for each item in this list.
1. CC(C)c1cnc2nn(-c3cc(NC(=O)C4CC4C)ccc3F)cc2c1 (centres unmarked)
2. CC(C)c1cnc2nn(-c3cc(NC(=O)C4CC4(F)F)ccc3F)cc2c1 (centres unmarked)
3. Cc1cccnc1-c1cnc2nn(-c3cc(NC(=O)N4CCC4)ccc3F)cc2c1
4. CC(C)(C)c1cnc2nn(-c3cc(NC(=O)N4CC(F)(F)C4)ccc3F)cc2c1
5. O=C(Nc1ccc(F)c(-n2cc3cc(-c4ncccc4F)cnc3n2)c1)C1CC1

Ans:
6.52
5.72
8.70
6.25
7.12

###

Assignment: determine reported EC50 for the given compounds.
- System: L. donovani HU3 strain in mouse peritoneal macrophages
- ASSAY NAME: Assay for inhibition of parasitemia of Leishmania donovani in mouse macrophages (SYBR Green nuclei count, high-content imaging)
- Type: cell-based
- TEST CONDITIONS: Leishmania donovani, Peritoneal macrophage, L. donovani in mouse peritoneal macrophages; read-out: L. donovani in Mouse Macrophages EC50
- Procedure: Assay for Inhibition of Parasitemia of Leishmania donovani in Mouse Macrophages […] The next day, Leishmania parasites are isolated from the spleens of mice infected for 9-11 weeks and 4×10^5 isolated parasites in […] of the above media are added to each plate well. […] Infected cells are imaged with Evotec Opera high-content microscope, and the number of parasites in well is determined by counting parasite nuclei visualized by staining with Sybr® Green dye.
Give bare numbers, in nM.

See these solved cases before continuing.
LINE NOTATION: CC(C)c1cnc2nn(-c3cc(NC(=O)c4ccc(F)cn4)ccc3F)cc2c1
EC50 / nM: 310
--
LINE NOTATION: CC(C)(C)Cc1cnc2nn(-c3cc(NC(=O)N4CC(F)(F)C4)ccc3F)cc2c1
EC50 / nM: 13
--
LINE NOTATION: O=C(Nc1ccc(F)c(-n2cc3cc(N4CC(F)C4)cnc3n2)c1)N1CC(F)(F)C1
EC50 / nM: 15

Q: For O=C(Nc1ccc(F)c(-n2cc3cc(CC(F)(F)F)cnc3n2)c1)c1ccco1 , what is its reported EC50?
Ans: 69

Origin of values: patent US11384078B2
